test: inhibitors of Clostridioides difficile proliferation – 4-point retest, confirmation (AID 1224921);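 note: plate controls were DMSO wells for no effect and levofloxacin 16 µg/mL wells for full effect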
settings: Clostridioides difficile clinical isolate growth, OD600, 24 h, active compounds read low; at 30 µM unless noted
Among all 1,400 compounds or so, about 350 (25%) were called active. Another 2% or so got no clear call; they are omitted. Only a sample is shown. Measured potencies and affinities stand elsewhere.
Property: max activity; scope: individual compounds

Use these answered entries as a reference point.
COc1cccc(S(=O)(=O)N[C@@H]2CC[C@H](CCN)O[C@@H]2CO)c1	-11.8% [at 1.95 µM] (inactive)
C[C@@H]1CCCCO[C@H](CN(C)CC2CCCCC2)[C@H](C)CN([C@@H](C)CO)C(=O)c2cc(NC(=O)Nc3ccccc3)ccc2O1	9.95% (inactive)
CCCC(=O)Nc1ccc2c(c1)C(=O)N(C)C[C@@H](OC)[C@@H](C)CN(C)[C@@H](C)CO2	-13% [at 8 µM] (inactive)
C[C@H](CO)N1C[C@H](C)[C@@H](CN(C)S(=O)(=O)CC(F)(F)F)OCc2ccccc2-c2c(n(C)c3ccccc23)C1=O	24.2% (inactive)
CO[C@H]1CN(C)C(=O)c2cc(NC(=O)NC(C)C)ccc2OC[C@H](C)N(Cc2ccccn2)C[C@@H]1C	-9.04% [at 1.95 µM] (inactive)
C[C@@H]1CCCCO[C@H](CN(C)CC2CCCCC2)[C@H](C)CN([C@@H](C)CO)C(=O)c2cc(NC(=O)Nc3ccc(F)cc3)ccc2O1	11.6% (inactive)
CC(C)CC#Cc1ccc2c(c1)O[C@@H](CN(C)CC1CCOCC1)[C@H](C)CN([C@H](C)CO)S2(=O)=O	29% (inactive)

### Prompt Fill in the blank: the reported max activity of CCCC#Cc1ccc([C@@H]2[C@H](C#N)N(S(=O)(=O)c3cccc(F)c3)[C@H]2CO)cc1 is ____.
### Response 21.1% (inactive)

---

test: inhibitors of Clostridioides difficile proliferation – 4-point retest, confirmation (AID 1224921);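 note: plate controls were DMSO wells for no effect and levofloxacin 16 µg/mL wells for full effect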
settings: Clostridioides difficile clinical isolate growth, OD600, 24 h, active compounds read low; at 30 µM unless noted
The campaign covered roughly 1,400 compounds. About 350 (25%) were called active. Roughly 2% stayed inconclusive and do not appear here. These entries were drawn from the full list. Measured potencies and affinities stand elsewhere.
Catalogue of molecules with associated max activity

Here's what some known entries look like.
O=C(C[C@H]1C[C@H]2c3cc(NC(=O)C4CCC4)ccc3O[C@H]2[C@H](CO)O1)NCCc1ccccc1	-11.7% [at 1.95 µM] (inactive)
CO[C@@H]1CN(C)C(=O)c2cc(NC(=O)c3ccccc3)ccc2OC[C@H](C)N(C)C[C@@H]1C	18.3% (inactive)
CCCNC(=O)Nc1ccc2c(c1)OC[C@H](C)N(Cc1ccccc1)C[C@@H](C)[C@@H](OC)CN(C)C2=O	27.8% [at 8 µM] (inactive)
CO[C@@H]1CN(C)C(=O)c2ccc(NC(=O)Nc3cccc(F)c3)cc2OC[C@@H](C)N(C(=O)C2CC2)C[C@H]1C	-12.2% [at 8 µM] (inactive)
C[C@@H]1CN([C@@H](C)CO)S(=O)(=O)c2ccc(C3=CCCCC3)cc2O[C@@H]1CN(C)Cc1ccncc1	54.5% (inactive)

### Prompt Fill in: max activity of C[C@H](CO)N1C[C@H](C)[C@H](CN(C)C(=O)Nc2cccc(F)c2)Oc2cc(C#CC3(O)CCCC3)ccc2S1(=O)=O is ___
### Response 50.2% (inactive)

### Prompt Next record, please: COc1ccc(S(=O)(=O)N(C)C[C@@H]2Oc3ncc(-c4ccc(F)cc4)cc3C(=O)N([C@H](C)CO)C[C@@H]2C)cc1
### Response -7.45% (inactive)
